Catalogue of viability, T/C readings, one per entry.
# Tested on: 454973-116-R2-J3-PDC spheroids, percent test/control viability;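 note: spheroids exposed to compounds for 7 days before readout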
# test.summary: Anticancer human tumor 454973-116-R2-J3-PDC patient-derived pancreatic carcinoma cell line growth inhibition [CLK]
# measurement.context: second compound 1 µM; first compound 0.1 µM; active compounds read low; spheroids with HUVEC and MSC
endpoint.label: viability, T/C (%)

{"columns": ["compound", "unit.spec", "readout.value"],
 "data": [
  ["CC(Nc1ccc2c(c1)OCCn1cc(N3C(=O)OCC3C(F)F)nc1-2)C(N)=O (stereo not given) + CN1CCN(c2cc(C(=O)Nc3cc4cc(-c5cnn(C)c5)ccc4cn3)ccn2)CC1", "%", 0.11],
  ["CC1(C)CCC(CN2CCN(c3ccc(C(=O)NS(=O)(=O)c4ccc(NCC5CCOCC5)c([N+](=O)[O-])c4)c(Oc4cnc5[nH]ccc5c4)c3)CC2)=C(c2ccc(Cl)cc2)C1 + CN1CCN(c2cc(C(=O)Nc3cc4cc(-c5cnn(C)c5)ccc4cn3)ccn2)CC1", "%", 0.14],
  ["C=CC(=O)N1CCN(c2nc(=O)n(-c3c(C)ccnc3C(C)C)c3nc(-c4c(O)cccc4F)c(F)cc23)C(C)C1 (stereo not given) + CNC(=O)c1ccc(Nc2nc(OC3CCCC3)c3c(-c4ccc5nc(C)oc5c4)c[nH]c3n2)c(OC)c1", "%", 30.5],
  ["CCCS(=O)(=O)Nc1ccc(F)c(C(=O)c2c[nH]c3ncc(-c4ccc(Cl)cc4)cc23)c1F + CNC(=O)c1ccc(Nc2nc(OC3CCCC3)c3c(-c4ccc5nc(C)oc5c4)c[nH]c3n2)c(OC)c1", "%", 33.6],
  ["CCN1CCN(Cc2ccc(Nc3ncc(F)c(-c4cc(F)c5nc(C)n(C(C)C)c5c4)n3)nc2)CC1 + CN1CCN(c2cc(C(=O)Nc3cc4cc(-c5cnn(C)c5)ccc4cn3)ccn2)CC1", "%", 0.19]
]}

Data provenance is PubChem BioAssay AID2060618.
